System: Shigella flexneri
ASSAY PROCEDURE: growth AUC normalised to DMSO control (fraction of control); higher = less growth inhibition, active = hit call of the paper
MEASUREMENT CONTEXT: 20 µM
Counter-ions that a name gives are not always drawn.
Each entry below carries its reported growth AUC normalised to DMSO control.

- COMPOUND: "Cc1cccc(C)c1NC(=O)CN1CCN(CCCC(c2ccc(F)cc2)c2ccc(F)cc2)CC1 [Lidoflazine]"
  growth AUC normalised to DMSO control: "1.02 (inactive)"
- COMPOUND: "Cc1ccc2c(c1)c1c3n2CCNC3CCC1 (configuration not stated) [Pirlindole mesylate]"
  growth AUC normalised to DMSO control: "0.999 (inactive)"
- COMPOUND: "CN[C@@H]1[C@H](O[C@H]2[C@H](O[C@H]3[C@H](O)[C@@H](O)[C@H](N=C(N)N)[C@@H](O)[C@@H]3N=C(N)N)O[C@@H](C)[C@]2(O)C=O)O[C@@H](CO)[C@H](O)[C@H]1O [Streptomycin sulfate]"
  growth AUC normalised to DMSO control: "1.05 (inactive)"
- COMPOUND: "C=C1c2cccc(O)c2C(O)=C2C(=O)[C@]3(O)C(O)=C(C(N)=O)C(=O)[C@@H](N(C)C)[C@@H]3[C@@H](O)[C@H]12 [Methacycline hydrochloride]"
  growth AUC normalised to DMSO control: "0.0126 (active)"

Lab request: please report growth AUC normalised to DMSO control under test system Shigella flexneri for CCN(CC)CC#CCOC(=O)C(O)(c1ccccc1)C1CCCCC1 (configuration not stated) [Oxybutynin chloride] 0.944 (inactive)

Hi! What's the reported growth AUC normalised to DMSO control for COCCCOc1ccnc(C[S+]([O-])c2nc3ccccc3[nH]2)c1C (configuration not stated) [Rabeprazole sodium salt] on Shigella flexneri? 1.04 (inactive)

API: value(readout= growth AUC normalised to DMSO control, system= Shigella flexneri, query= CNC(=O)c1c(I)c(C(=O)NCC(=O)Nc2c(I)c(C(=O)O)c(I)c(C(=O)NCCO)c2I)c(I)c(N(C)C(C)=O)c1I [Ioxaglic acid] ) 0.993 (inactive)

Missing value: growth AUC normalised to DMSO control, Shigella flexneri, entry CCOC(=O)[C@H](CCc1ccccc1)N[C@H]1CCc2ccccc2N(CC(=O)O)C1=O [Benazepril hydrochloride] . Fill in? 0.996 (inactive)

Return growth AUC normalised to DMSO control measured with Shigella flexneri given this compound: Nc1c2c(nc3ccccc13)CCCC2 [Tacrine hydrochloride] 1.03 (inactive)

GET /values?readout=growth AUC normalised to DMSO control&system=Shigella flexneri&item= CCN(CC)CCOC(=O)C(Cc1cccc2ccccc12)CC1CCCO1 (configuration not stated) [Nafronyl oxalate] 0.977 (inactive)

Find growth AUC normalised to DMSO control (Shigella flexneri) for the entry O=C(CCCN1CC=C(n2c(=O)[nH]c3ccccc32)CC1)c1ccc(F)cc1 [Droperidol] 0.985 (inactive)

Provide value of growth AUC normalised to DMSO control for this record tested with Shigella flexneri: CCc1c(C)[nH]c2c1C(=O)C(CN1CCOCC1)CC2 (configuration not stated) [Molindone hydrochloride] 1.02 (inactive)

Given the entry O=C1CCc2ccc(OCCCCN3CCN(c4cccc(Cl)c4Cl)CC3)cc2N1 [Aripiprazole] , what growth AUC normalised to DMSO control was observed with Shigella flexneri? 1.03 (inactive)

Query growth AUC normalised to DMSO control on Shigella flexneri for CC(N)(Cc1ccc(O)c(O)c1)C(=O)O (configuration not stated) [(L) Methyldopa] 1.01 (inactive)

Record CC(C)n1c(/C=C/C(O)CC(O)CC(=O)O)c(-c2ccc(F)cc2)c2ccccc21 (configuration not stated) [Fluvastatin sodium salt] : what is its growth AUC normalised to DMSO control with Shigella flexneri? 0.995 (inactive)

Form field: growth AUC normalised to DMSO control recorded for O=C(O)CCc1nc(-c2ccccc2)c(-c2ccccc2)o1 [Oxaprozin] with Shigella flexneri (enter value) 1.02 (inactive)

Hi! What's the reported growth AUC normalised to DMSO control for O=C1C(=O)c2ccccc2C(O)=C1C1CCC(c2ccc(Cl)cc2)CC1 (configuration not stated) [Atovaquone] on Shigella flexneri? 0.976 (inactive)

Ref: the supplement of paper PMC12350171
